Target: P-glycoprotein (Human MDR1) (Homo sapiens, UniProt P08183)
Construct: expressed in transfected cells; host or cells: LLC-GA5-COL300 (derived from pig kidney LLC-PK1)
Sequence (P08183 whole entry): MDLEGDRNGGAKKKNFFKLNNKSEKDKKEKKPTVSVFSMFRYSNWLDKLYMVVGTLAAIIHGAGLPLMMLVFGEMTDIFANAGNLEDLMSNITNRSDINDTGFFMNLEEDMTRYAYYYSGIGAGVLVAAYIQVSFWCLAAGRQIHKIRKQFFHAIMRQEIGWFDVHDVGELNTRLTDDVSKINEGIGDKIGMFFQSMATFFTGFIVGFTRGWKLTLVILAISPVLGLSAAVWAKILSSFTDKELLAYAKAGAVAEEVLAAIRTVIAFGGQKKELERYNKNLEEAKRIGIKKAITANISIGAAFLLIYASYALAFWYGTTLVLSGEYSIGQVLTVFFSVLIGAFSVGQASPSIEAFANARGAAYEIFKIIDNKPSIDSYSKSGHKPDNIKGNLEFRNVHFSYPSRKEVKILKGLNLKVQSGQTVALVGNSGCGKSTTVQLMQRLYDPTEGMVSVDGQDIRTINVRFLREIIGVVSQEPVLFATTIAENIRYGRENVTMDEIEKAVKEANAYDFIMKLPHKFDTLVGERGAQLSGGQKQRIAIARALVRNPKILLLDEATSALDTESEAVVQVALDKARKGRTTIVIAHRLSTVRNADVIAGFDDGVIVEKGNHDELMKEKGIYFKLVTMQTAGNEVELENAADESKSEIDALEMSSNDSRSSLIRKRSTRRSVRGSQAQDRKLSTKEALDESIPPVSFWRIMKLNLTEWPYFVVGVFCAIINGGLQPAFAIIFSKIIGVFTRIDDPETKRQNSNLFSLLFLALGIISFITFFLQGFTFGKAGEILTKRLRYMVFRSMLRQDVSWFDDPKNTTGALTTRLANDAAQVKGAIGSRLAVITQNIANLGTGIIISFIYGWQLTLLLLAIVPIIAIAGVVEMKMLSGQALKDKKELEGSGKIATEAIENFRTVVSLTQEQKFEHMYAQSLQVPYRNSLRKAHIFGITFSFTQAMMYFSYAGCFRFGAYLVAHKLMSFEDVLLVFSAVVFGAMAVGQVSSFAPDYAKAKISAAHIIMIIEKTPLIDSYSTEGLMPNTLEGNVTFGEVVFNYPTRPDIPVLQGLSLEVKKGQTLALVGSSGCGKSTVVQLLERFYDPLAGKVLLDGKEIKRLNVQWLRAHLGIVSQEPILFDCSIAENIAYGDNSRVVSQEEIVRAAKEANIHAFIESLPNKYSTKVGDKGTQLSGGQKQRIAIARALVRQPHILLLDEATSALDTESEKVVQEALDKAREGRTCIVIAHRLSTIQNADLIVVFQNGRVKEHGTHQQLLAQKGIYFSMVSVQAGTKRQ
Experiment: P-glycoprotein substrate recognition test
Format: in vitro ADME
Conditions: human, LLC-PK1, LLC-GA5-COL300 cells on transwell, ratio of apical→basal and basal→apical membrane permeation coefficients
Protocol: (Test 4: P-Glycoprotein Substrate Recognition Test) LLC-GA5-COL300 cells (Human MDR1 expressing system derived from pig kidney derived, cultured renal epithelial cell line LLC-PK1) were cultured on a transwell. […] A solution of an assay compound adjusted to a final concentration of 10 μM was added to the donor side of LLC-GA5-COL300 cells and after the passage of a predetermined period of time, a specified quantity of […] was sampled from the acceptor side. […]
If the reported efflux ratio at 10 μM equals or exceeds 2, assign Met. If not, assign Not met.

Observe how each entry below is paired with its result.
| Molecule | Measured On | Group Label |
| --- | --- | --- |
| O=C(c1ccn(-c2ccc(OC3CCN(C4CCC4)CC3)cc2)c1)N1CCC1 [Compound No. 3] | P-glycoprotein (Human MDR1) (Homo sapiens, UniProt P08183) | Not met |
| CN(C)C(=O)c1ccn(-c2ccc(OC3CCN(C4CCC4)CC3)cc2)c1 [compound 6] | P-glycoprotein (Human MDR1) (Homo sapiens, UniProt P08183) | Not met |
| CNC(=O)c1ccn(-c2ccc(OC3CCN(C4CCC4)CC3)cc2)c1 [compound 7] | P-glycoprotein (Human MDR1) (Homo sapiens, UniProt P08183) | Not met |
| NC(=O)c1ccn(-c2ccc(OC3CCN(C4CCC4)CC3)cc2)c1 [compound 8] | P-glycoprotein (Human MDR1) (Homo sapiens, UniProt P08183) | Not met |
| C[C@@H]1CCCN1CCCOc1ccc(-n2ccc(C(=O)N3CCCC3)c2)cc1 [Compound No. 16] | P-glycoprotein (Human MDR1) (Homo sapiens, UniProt P08183) | Met |

Quick check: does O=C(c1ccn(-c2ccc(OC3CCN(C4CCC4)CC3)cc2)c1)N1CCOCC1 [compound 9] have efflux ratio at 10 μM greater than or equal to 2?
Not met

###

Readings of Kp at 1 h for the listed compounds
Test: Rat in vivo pharmacokinetic study
Design: species or system SD rats
Conditions: SD, rat, in vivo, po, 3 mg/kg, brain/plasma movement ratio
Enter a number only.

| Compound | Observed |
| --- | --- |
| CNC(=O)c1ccn(-c2ccc(OC3CCN(C4CCC4)CC3)cc2)c1 [compound 7] | 2.2 |

Tell me Kp at 1 h reported for O=C(c1ccn(-c2ccc(OC3CCN(C4CCC4)CC3)cc2)c1)N1CCC1 [Compound No. 3]
4.5

###

Experiment: Rat in vivo pharmacokinetic study
Design: species or system SD rats
Conditions: SD, rat, in vivo, po, 3 mg/kg, cerebrospinal fluid/plasma movement ratio
Observable: Kp at 1 h
Enter a number only.

Tell me Kp at 1 h reported for O=C(c1ccn(-c2ccc(OC3CCN(C4CCC4)CC3)cc2)c1)N1CCC1
0.3

Tell me Kp at 1 h reported for CNC(=O)c1ccn(-c2ccc(OC3CCN(C4CCC4)CC3)cc2)c1
0.3

###

Assay read-out pIC50; system under study: H3 receptor (Rattus norvegicus).
Sequence (Q9QYN8 whole entry): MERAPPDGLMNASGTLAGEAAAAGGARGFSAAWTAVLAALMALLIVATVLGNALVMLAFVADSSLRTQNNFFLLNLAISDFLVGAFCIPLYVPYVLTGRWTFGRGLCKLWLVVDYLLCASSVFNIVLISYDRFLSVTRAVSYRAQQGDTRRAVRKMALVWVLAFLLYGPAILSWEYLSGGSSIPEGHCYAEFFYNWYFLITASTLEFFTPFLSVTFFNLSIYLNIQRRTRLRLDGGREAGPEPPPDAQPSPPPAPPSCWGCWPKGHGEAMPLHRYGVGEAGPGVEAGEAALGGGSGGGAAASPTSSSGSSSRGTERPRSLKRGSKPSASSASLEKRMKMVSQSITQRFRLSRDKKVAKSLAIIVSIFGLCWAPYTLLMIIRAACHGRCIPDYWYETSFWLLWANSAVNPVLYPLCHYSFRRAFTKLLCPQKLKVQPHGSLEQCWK
pIC50 is a log-scale quantity: -log10 of the concentration expressed in molar.

| Compound | Measured On | pIC50 |
| --- | --- | --- |
| O=C(NC1CCC1)c1ccn(-c2ccc(OC3CCN(C4CCC4)CC3)cc2)c1 | H3 receptor (Rattus norvegicus) | 8.43 |
| C[C@@H]1CCCN1CCCOc1ccc(-n2ccc(C(=O)N3CCCC3)c2)cc1 | H3 receptor (Rattus norvegicus) | 8.82 |
| NC(=O)c1ccn(-c2ccc(OC3CCN(C4CCC4)CC3)cc2)c1 | H3 receptor (Rattus norvegicus) | 8.02 |
| CNC(=O)c1ccn(-c2ccc(OC3CCN(C(C)(C)C)CC3)cc2)c1 | H3 receptor (Rattus norvegicus) | 7.68 |

// moving on: another record for pIC50
Would you please give the reported pIC50 of CNC(=O)c1ccn(-c2ccc(OC3CCN(C4CCC4)CC3)cc2)c1 with H3 receptor (Rattus norvegicus)?
8.23
